- System: HCT-116
- procedure summary: Phototoxicity against human HCT116 cells at 1 uM after 24 hrs followed by halogen light irradiation by MTS assay
- Format: functional, cell-based
Calls of active or inactive are those of the source. The calls are words filed in the database; no cut-off is given here.
Outcomes you can answer with include only these: active, inactive

CC1(C)O[C@H]2[C@@H](O1)[C@@H](c1c3nc(c(-c4ccccc4)c4ccc([nH]4)c([C@H]4O[C@@H]5OC(C)(C)O[C@@H]5[C@H]5OC(C)(C)O[C@H]54)c4nc(c(-c5ccccc5)c5ccc1[nH]5)C=C4)C=C3)O[C@@H]1OC(C)(C)O[C@@H]12 inactive
CC1(C)O[C@H]2[C@@H](O1)[C@@H](c1c3nc(c(-c4ccc(Cl)cc4)c4ccc([nH]4)c([C@H]4O[C@@H]5OC(C)(C)O[C@@H]5[C@H]5OC(C)(C)O[C@H]54)c4nc(c(-c5ccc(Cl)cc5)c5ccc1[nH]5)C=C4)C=C3)O[C@@H]1OC(C)(C)O[C@@H]12 inactive
COc1cccc(OC)c1-c1c2nc(c([C@H]3O[C@@H]4OC(C)(C)O[C@@H]4[C@H]4OC(C)(C)O[C@H]43)c3ccc([nH]3)c(-c3c(OC)cccc3OC)c3nc(c([C@H]4O[C@@H]5OC(C)(C)O[C@@H]5[C@H]5OC(C)(C)O[C@H]54)c4ccc1[nH]4)C=C3)C=C2 inactive
CSc1ccc(-c2c3nc(c([C@H]4O[C@@H]5OC(C)(C)O[C@@H]5[C@H]5OC(C)(C)O[C@H]54)c4ccc([nH]4)c(-c4ccc(SC)cc4)c4nc(c([C@H]5O[C@@H]6OC(C)(C)O[C@@H]6[C@H]6OC(C)(C)O[C@H]65)c5ccc2[nH]5)C=C4)C=C3)cc1 active
CC1(C)O[C@H]2[C@@H](O1)[C@@H](c1c3nc(c(-c4ccc(OC(F)(F)F)cc4)c4ccc([nH]4)c([C@H]4O[C@@H]5OC(C)(C)O[C@@H]5[C@H]5OC(C)(C)O[C@H]54)c4nc(c(-c5ccc(OC(F)(F)F)cc5)c5ccc1[nH]5)C=C4)C=C3)O[C@@H]1OC(C)(C)O[C@@H]12 inactive

What did this assay record as the result for CC1(C)O[C@H]2[C@@H](O1)[C@@H](c1c3nc(c(-c4ccsc4)c4ccc([nH]4)c([C@H]4O[C@@H]5OC(C)(C)O[C@@H]5[C@H]5OC(C)(C)O[C@H]54)c4nc(c(-c5ccsc5)c5ccc1[nH]5)C=C4)C=C3)O[C@@H]1OC(C)(C)O[C@@H]12 ?
active

What did this assay record as the result for COc1ccc(-c2c3nc(c([C@H]4O[C@@H]5OC(C)(C)O[C@@H]5[C@H]5OC(C)(C)O[C@H]54)c4ccc([nH]4)c(-c4ccc(OC)cc4)c4nc(c([C@H]5O[C@@H]6OC(C)(C)O[C@@H]6[C@H]6OC(C)(C)O[C@H]65)c5ccc2[nH]5)C=C4)C=C3)cc1 ?
active

What did this assay record as the result for CC1(C)O[C@H]2[C@@H](O1)[C@@H](c1c3nc(c(-c4ccc([N+](=O)[O-])cc4)c4ccc([nH]4)c([C@H]4O[C@@H]5OC(C)(C)O[C@@H]5[C@H]5OC(C)(C)O[C@H]54)c4nc(c(-c5ccc([N+](=O)[O-])cc5)c5ccc1[nH]5)C=C4)C=C3)O[C@@H]1OC(C)(C)O[C@@H]12 ?
inactive

What did this assay record as the result for CC1(C)O[C@H]2[C@@H](O1)[C@@H](c1c3nc(c(-c4c(F)c(F)c(F)c(F)c4F)c4ccc([nH]4)c([C@H]4O[C@@H]5OC(C)(C)O[C@@H]5[C@H]5OC(C)(C)O[C@H]54)c4nc(c(-c5c(F)c(F)c(F)c(F)c5F)c5ccc1[nH]5)C=C4)C=C3)O[C@@H]1OC(C)(C)O[C@@H]12 ?
inactive

What did this assay record as the result for CC1(C)O[C@H]2[C@@H](O1)[C@@H](C=O)O[C@@H]1OC(C)(C)O[C@@H]12 ?
inactive
